Reference source: the supplement of paper PMC6897291

growth inhibition by drug alone values for the compounds below.
- System: RIVA
- MEASUREMENT DESCRIPTION: growth inhibition by drug alone (1 - RLU/untreated control) (fraction); higher = stronger inhibition
- RECORDED CONDITIONS: 10 nM; time (day): 5; 177Lu-lilotomab satetraxetan 0 ug/ml
PROPERTY NAME: growth inhibition by drug alone

INSERT INTO measurements (compound, system_under_test, property_name, reported) VALUES
  ('CN1CCN(CCOc2cc(OC3CCOCC3)c3c(Nc4c(Cl)ccc5c4OCO5)ncnc3c2)CC1', 'RIVA', 'growth inhibition by drug alone', -0.326),
  ('CCC(=O)N1CCN(c2ccc(-n3c(=O)ccc4cnc5ccc(-c6cnc7ccccc7c6)cc5c43)cc2C(F)(F)F)CC1', 'RIVA', 'growth inhibition by drug alone', -0.0391),
  ('CC(C)(C)c1ccc(S(=O)(=O)/C=C/C#N)cc1', 'RIVA', 'growth inhibition by drug alone', -0.0516),
  ('CN(Cc1cnc2nc(N)nc(N)c2n1)c1ccc(C(=O)N[C@@H](CCC(=O)O)C(=O)O)cc1 [Abitrexate (Methotrexate)]', 'RIVA', 'growth inhibition by drug alone', -0.282),
  ('CC(c1cc2ccccc2s1)N(O)C(N)=O (stereo not drawn)', 'RIVA', 'growth inhibition by drug alone', -0.104),
  ('Nc1nccc(Oc2ccc(NC(=O)c3c[nH]cc(-c4ccc(F)cc4)c3=O)cc2F)c1Cl', 'RIVA', 'growth inhibition by drug alone', -0.278),
  ('COc1ccc(C2CC(c3ccccc3)=NN2c2ccc(S(N)(=O)=O)cc2)cc1 (stereo not drawn)', 'RIVA', 'growth inhibition by drug alone', -0.182),
  ('CC(C)n1c(/C=C/C(O)CC(O)CC(=O)O)c(-c2ccc(F)cc2)c2ccccc21 (stereo not drawn) [Fluvastatin sodium (Lescol)]', 'RIVA', 'growth inhibition by drug alone', -0.189);

* * *

growth inhibition by drug alone values for the molecules below.
- Tested on: U-2932
- MEASUREMENT DESCRIPTION: growth inhibition by drug alone (1 - RLU/untreated control) (fraction); higher = stronger inhibition
- RECORDED CONDITIONS: 10 nM; time (day): 6; 177Lu-lilotomab satetraxetan 0 ug/ml
Counter-ions that a name gives are not always drawn.
PROPERTY NAME: growth inhibition by drug alone

INSERT INTO results (molecule, system_under_test, reported) VALUES
  ('Cc1cnc(-c2cnc(NCCNc3ccc(C#N)cn3)nc2-c2ccc(Cl)cc2Cl)[nH]1', 'U-2932', -0.034),
  ('O=C(Nc1cccnc1)N1CCC(Cc2cccc(Oc3ccc(C(F)(F)F)cn3)c2)CC1', 'U-2932', -0.0195),
  ('C=C1/C(=C\C=C2/CCC[C@]3(C)[C@@H]([C@H](C)/C=C/[C@H](C)C(C)C)CC[C@@H]23)C[C@@H](O)C[C@@H]1O', 'U-2932', 0.0598),
  ('CC(C)C[C@H](NC(=O)[C@@H](O)[C@H](N)Cc1ccccc1)C(=O)O', 'U-2932', -0.108),
  ('C[N+](C)([O-])CCNc1ccc(NCC[N+](C)(C)[O-])c2c1C(=O)c1c(O)ccc(O)c1C2=O [Banoxantrone dihydrochloride]', 'U-2932', -0.168),
  ('COc1cc2c(cc1O)CC[C@@H]1[C@@H]2CC[C@]2(C)[C@@H](O)CC[C@@H]12', 'U-2932', -0.0895),
  ('CCC1=C[C@@H]2CN(C1)Cc1c([nH]c3ccccc13)[C@@](C(=O)OC)(c1cc3c(cc1OC)N(C)[C@H]1[C@@](O)(C(=O)OC)[C@H](OC(C)=O)[C@]4(CC)C=CCN5CC[C@]31[C@@H]54)C2', 'U-2932', 0.614),
  ('C[C@H](NC(=O)Cc1cc(F)cc(F)c1)C(=O)N[C@H](C(=O)OC(C)(C)C)c1ccccc1', 'U-2932', -0.000319),
  ('Cc1ccc(NC(=O)c2ccc(CN3CC[C@H](N(C)C)C3)c(C(F)(F)F)c2)cc1Nc1nccc(-c2cncnc2)n1', 'U-2932', 0.0553),
  ('N#Cc1ccc(COC[C@H]2O[C@@H](n3c(NCc4ccc(Cl)c(Cl)c4)nc4c(N)ncnc43)[C@H](O)[C@@H]2O)cc1', 'U-2932', -0.0103),
  ('Cc1ccc(S(=O)(=O)C=CC#N)cc1', 'U-2932', -0.041),
  ('CC(C)(C)c1[nH]cnc1/C=c1\[nH]c(=O)/c(=C/c2ccccc2)[nH]c1=O', 'U-2932', -0.0221),
  ('CC(C)[C@H](C(=O)Nc1ccc(C(=O)NO)cc1)c1ccccc1', 'U-2932', -0.000531),
  ('Fc1cc(-c2cccc3ncc(-c4cnn(C5CCNCC5)c4)nc23)cc(F)c1CN1CCOCC1', 'U-2932', -0.0936),
  ('C[C@]12CC[C@@H]3c4ccc(O)cc4C[C@@H](CCCCCCCCC[S+]([O-])CCCC(F)(F)C(F)(F)F)[C@H]3[C@@H]1CC[C@@H]2O (stereo partly drawn)', 'U-2932', -0.212),
  ('Cc1cc(O)c2c(c1)C(=O)c1cccc(O)c1C2=O', 'U-2932', 0.0657),
  ('Cn1cnc(N)c2ncnc1-2', 'U-2932', 0.0577),
  ('COc1cc(Nc2ncc3c(n2)-c2ccc(Cl)cc2C(c2c(F)cccc2OC)=NC3)ccc1C(=O)O', 'U-2932', -0.269),
  ('CCCCCCCc1ccc(CCc2cccc(O)c2C(=O)O)cc1', 'U-2932', -0.106),
  ('CCC(C)n1ncn(-c2ccc(N3CCN(c4ccc(OCC5COC(Cn6cncn6)(c6ccc(Cl)cc6Cl)O5)cc4)CC3)cc2)c1=O (stereo not drawn) [Itraconazole (Sporanox)]', 'U-2932', -0.11),
  ('C[C@@H](N)[C@H]1CC[C@H](C(=O)Nc2ccncc2)CC1', 'U-2932', -0.119),
  ('Nc1nc(N)c(N=O)c(OCC2CCCCC2)n1', 'U-2932', 0.0483),
  ('COc1cc(Nc2ncc(F)c(Nc3ccc4c(n3)N(COP(=O)(O)O)C(=O)C(C)(C)O4)n2)cc(OC)c1OC', 'U-2932', 0.0946);
